The measurements presented in this section are drawn from patent US20240270821A1.

- System Under Test: hGIPR (Homo sapiens, UniProt P48546)
- Sequence (P48546 22-466): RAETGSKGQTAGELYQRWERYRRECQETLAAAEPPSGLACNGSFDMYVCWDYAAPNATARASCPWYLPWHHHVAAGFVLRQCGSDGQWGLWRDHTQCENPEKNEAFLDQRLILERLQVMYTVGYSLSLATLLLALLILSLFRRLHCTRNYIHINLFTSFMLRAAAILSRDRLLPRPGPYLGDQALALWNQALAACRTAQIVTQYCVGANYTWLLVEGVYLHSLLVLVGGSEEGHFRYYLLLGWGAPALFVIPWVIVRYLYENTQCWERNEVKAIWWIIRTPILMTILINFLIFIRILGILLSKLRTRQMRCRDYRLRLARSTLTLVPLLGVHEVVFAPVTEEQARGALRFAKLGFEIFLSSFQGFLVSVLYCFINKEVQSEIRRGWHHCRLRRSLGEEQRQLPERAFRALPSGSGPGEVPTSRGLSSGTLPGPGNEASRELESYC
- Test Method Notes: Functional cAMP activation in the presence of 0.1% casein (no HSA);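 also: intracellular cAMP rise after 30 min at 37 °C read by HTRF against a standard curve, scaled between buffer alone (0%) and top control ligand concentration (100%), four-parameter fit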
- Type: cell-based
- Test Settings: in the presence of 0.1% casein (no HSA); geometric mean of relative EC50; read-out: Relative cAMP EC50, hGIPR
Starred links: 1 amine or outer side, 2 acyl side, 3 side chain; linkers in the order of their positions; H or OH if unused. Non-standard residues stand in square brackets, D forms with d. Groups on a side chain read outwards from the residue. *: point of attachment. C18 diacid = O=C(O)CCCCCCCCCCCCCCCCC(=O)*; αMePhe(2-F) = C[C@](N)(Cc1ccccc1F)C(=O)O; γGlu = O=C(O)[C@H](CCC(=O)[*:2])N[*:1]; 4Pal = N[C@@H](Cc1ccncc1)C(=O)O; αMeL = CC(C)C[C@](C)(N)C(=O)O; Orn = NCCC[C@H](N)C(=O)O; AEEA = NCCOCCOCC(=O)O; Aib = CC(C)(N)C(=O)O
Reported values of pEC50 for individual entries
# reply with the number alone; pEC50 is -log10 of concentration in mol/L

What value of pEC50 has been recorded for this entry: H-Y[Aib]QGT[αMePhe(2-F)]TSD[4Pal]SI[αMeL]LDKK([γGlu-γGlu-C18 diacid])AQ[Aib][Orn]FIEYLSEGGPSSGEPPPSGSEE-NH2 [Example 637]
9.97

What do you get for H-Y[Aib]QGT[αMePhe(2-F)]TSD[4Pal]SI[αMeL]LDKK([γGlu-γGlu-C18 diacid])AQ[Aib][Orn]FIEYLEEGGPSSGEPPPSGSEE-NH2 [Example 635] ?
10.39

What do you get for H-Y[Aib]QGT[αMePhe(2-F)]TSD[4Pal]SI[αMeL]LDKK([γGlu-γGlu-C18 diacid])AQ[Aib][Orn]FIEYLTEGGPSSGEPPPEGSEE-NH2 [Example 652] ?
10.47

What do you get for H-Y[Aib]QGT[αMePhe(2-F)]TSDYSI[αMeL]LDKK([AEEA-γGlu-C18 diacid])AQ[Aib]AFIEYLLETGPSSGAPPPSEG-NH2 [Example 417] ?
10.84
